Could you please report measured Percent Effect for the items listed next?
# Test system: Mycobacterium tuberculosis
# ASSAY METHOD TEXT: Cornell M. t heat shock assay; further: in the data most compounds retested in dose-response had high values
# Assay type: functional, organism-based
# Parameters: dose or concentration left out as unconfirmed
Out of some 69,000 compounds screened, about 950 (1.4%) showed an effect of 50% or more. The list comes from a sample in which strong results are over-represented; it also holds close analogues and randomly drawn compounds.
Give just the number in %; leave the unit off.

**Query** Would you kindly share the measured Percent Effect for Cc1ccccc1CN1CCCC1c1cccc(Nc2nccs2)n1 (stereo not drawn) ?
**Result** 106.1

**Query** May I ask what Percent Effect has been recorded for "Cn1ccc(NC(=O)CN2C[C@H]3CC[C@@H]2CN(Cc2ccccn2)C3)n1" ?
**Result** -21.74

**Query** What does the record list as Percent Effect for "COc1ccc(C)c(NC(=O)NCc2cccc(N(C)C)n2)c1" ?
**Result** 29.74

**Query** Report Percent Effect for COCC(=O)NCc1cc(=O)n2c(n1)CN(CC1CCOC1)CCC2.O=C(O)C(F)(F)F (stereo not drawn) please.
**Result** -14.54

**Query** Query: Percent Effect; subject: "Cn1ccnc1-c1nc(NC2CCCC2)ncc1-c1cccc(F)c1"
**Result** 85.28

**Query** Recorded Percent Effect of Cc1cccc(CN2CCCC2c2cccc(CCC(=O)O)n2)c1 (stereo not drawn) , please.
**Result** -20.44

**Query** State the recorded Percent Effect for this entry: CN(CCC(O)c1ccccc1)Cc1nc(-c2ccccc2)no1 (stereo not drawn)
**Result** 28.98

**Query** Tell me the measured Percent Effect of "O=C(O)C(F)(F)F.O=C(O)C(F)(F)F.O=C1[C@H]2CN(Cc3ccccn3)C[C@H]2CN1c1ccsc1" , please.
**Result** -8.069

**Query** # input molecule: "Cc1nnsc1CN1C[C@H]2CC[C@@H]1CN(Cc1ccccn1)C2" ; wanted: its Percent Effect
**Result** -2.005

**Query** I have this molecule here, "CC(=O)N1[C@H](Cn2cncn2)C[C@@H]2CN(S(C)(=O)=O)CC[C@@H]21" , and I need its recorded Percent Effect.
**Result** -11.62

**Query** Consider the molecule CN(CCC(O)c1ccccc1)Cc1ccccc1C#N (stereo not drawn) and give its measured Percent Effect.
**Result** 79.67

**Query** Need Percent Effect of "CC(C)c1nc(CN2CCC(CO)CC2)cs1" , thanks.
**Result** 17.89

**Query** Tell me the measured Percent Effect of CC(C)[C@H](N)C(=O)N1CCCC(C2=Nc3ccccc3S(=O)(=O)N2)C1.Cl (stereo partly drawn) , please.
**Result** 13.38

**Query** Which Percent Effect reading was recorded for the molecule Cc1ncc(CNCC(C)O)c2cc(C(=O)c3ccc(Br)cc3)oc12.Cl (stereo not drawn) ?
**Result** 10.59

**Query** Could you share which Percent Effect value was measured for CC(C)(C)c1n[nH]c(C2CN(CCc3ccncc3)CCO2)n1 (stereo not drawn) ?
**Result** 12.04

**Query** Value lookup for Percent Effect; key = "O=C1C[C@H]2CC[C@@H](CN1)N2C1CCOCC1"
**Result** -8.619

**Query** # input molecule: "CCN1CCn2c(C)cnc2C12CCN(C(=O)COC)CC2.O=C(O)C(F)(F)F.O=C(O)C(F)(F)F" ; wanted: its Percent Effect
**Result** -13.45

**Query** Look up Percent Effect for this molecule: "COc1cccc(CN(C)Cc2ccccc2C#N)c1OC"
**Result** -6.46

**Query** Can you share its Percent Effect? I mean this molecule: "O=C(O)C(F)(F)F.O=C1COC2(CCN(S(=O)(=O)C3CC3)CC2)CN1c1cccnc1"
**Result** -24.7

**Query** Tell me the measured Percent Effect of COc1ccc(CN2CCCC3(CCN(c4ccsc4)C3=O)C2)cc1.O=C(O)C(F)(F)F (stereo not drawn) , please.
**Result** 27.7

**Query** Consider the molecule Cc1cc(Nc2nc(C)cs2)nc(C2CCCCN2CCO)n1 (stereo not drawn) and give its measured Percent Effect.
**Result** 103.2

**Query** Consider the molecule CSCCC1c2nc[nH]c2CCN1Cc1ccccc1C(F)(F)F (stereo not drawn) and give its measured Percent Effect.
**Result** -11.51

**Query** Recorded Percent Effect of "CC(C)(C)c1cc(CN2C[C@H]3CC[C@@H]2CN(Cc2ccccn2)C3)n[nH]1" , please.
**Result** 99.23

**Query** What Percent Effect value was documented for this molecule, "Cn1cnc(S(=O)(=O)N2C[C@@H]3CC[C@H](C2)N(Cc2ccccn2)C3)c1" ?
**Result** 7.06

**Query** Consider the molecule shown here: CSCCC1c2nc[nH]c2CCN1Cc1ccccc1C#N (stereo not drawn) What is its recorded Percent Effect?
**Result** 12.31

**Query** Percent Effect for CC1c2ncc(CN3CCN(C)CC3)n2CCN1Cc1ccsc1.O=C(O)C(F)(F)F.O=C(O)C(F)(F)F.O=C(O)C(F)(F)F (stereo not drawn) ?
**Result** -30.83

**Query** Returns the measured Percent Effect for the input molecule. Input: CNC(=O)c1cc(C2CCCN2)n[nH]1.Cl (stereo not drawn)
**Result** 10.86

**Query** Quick one: Percent Effect of "O=C(O)C(F)(F)F.O=C(c1ccco1)N1CCCC12CCN(c1ncccn1)CC2" ?
**Result** -4.902

**Query** Quick check: Percent Effect of COCC(=O)N1CCCC(C)(c2nncn2C)C1 (stereo not drawn) ?
**Result** 11.29

**Query** # Percent Effect lookup, item "CCc1c(C)sc2ncnc(N3C[C@H](O)[C@@H](N4CCCC4)C3)c12"
**Result** 59.45

**Query** Form field: reported Percent Effect of Cc1cccc(CN2CCCC2c2cccc(Nc3nccs3)n2)c1 (stereo not drawn)
**Result** 104

**Query** Fill in: Percent Effect of "O=c1c2cnc(N3CCOCC3)nc2ccn1Cc1ccco1" is ___
**Result** -1.985

**Query** So what does the record say about Percent Effect for "O=C(CN1C[C@H]2CC[C@@H]1CN(Cc1ccccn1)C2)Nc1ccccc1" ?
**Result** 12.62

**Query** Give its Percent Effect value. Item: CSCCC1c2nc[nH]c2CCN1Cc1cc(Cl)ccc1O (stereo not drawn)
**Result** 106.2

**Query** Find the recorded Percent Effect belonging to "CC(=O)c1ccc(NC(=O)NCc2cccc(N(C)C)n2)cc1C" and report it.
**Result** 63.04

**Query** I would be grateful if you could share the reported Percent Effect for "Cl.NCc1cc(-c2ccccc2)n2nccc2n1" .
**Result** -2.564

**Query** Sample "CC(C)c1nc(CC(=O)Nc2nc(CN3CCCCCC3)cs2)cs1" — what was its Percent Effect?
**Result** 104.4

**Query** Item "CCOCCCNc1ncc(-c2cccc(F)c2)c(-c2nccn2C)n1" has what recorded Percent Effect?
**Result** 8.299

**Query** Look up Percent Effect for this molecule: "CN(C)c1cccc(CNC(=O)Nc2ccc3[nH]nnc3c2)n1"
**Result** -8.207

**Query** Entry "CCc1c(C)sc2ncnc(N3CC[C@@H](N4CCOCC4)[C@H](O)C3)c12" has what Percent Effect?
**Result** 11.35

**Query** For the molecule "CC(C)c1nc(CN2CCCCC2)cs1" , what Percent Effect is on record?
**Result** 0.8394

**Query** Reported Percent Effect for "CN(C)[C@@H]1CN(C(=O)Cc2cccc(F)c2)[C@@H]2CCCO[C@H]12.O=C(O)C(F)(F)F" : what is it?
**Result** -1.237

**Query** So what does the record say about Percent Effect for Cc1nc(-c2cncnc2C2CCCNC2)no1.Cl.Cl (stereo not drawn) ?
**Result** -15.54

====

Kindly state Percent Effect for each of the entries shown.
# System: Mycobacterium tuberculosis
# ASSAY METHOD TEXT: Cornell M. t heat shock assay; further: in the data most compounds retested in dose-response had high values
# Format: functional, organism-based
# Parameters: dose or concentration left out as unconfirmed
The campaign covered roughly 69,000 compounds. About 950 (1.4%) showed an effect of 50% or more. The full list was thinned out, with strong results kept by preference.
Entry rule: numbers only, all in %.

**Query** Request the reported Percent Effect associated with O=C1NCCCC1NC(=O)C1(c2cccc(Cl)c2)CCC1 (configuration not stated)
**Result** 0.8202

**Query** Entry "CCNc1ccnc(N2Cc3cnc(CC(C)C)nc3C2)n1" : reported Percent Effect = ?
**Result** 35.37

**Query** Which Percent Effect reading was recorded for the compound "O=C(O)C(F)(F)F.O=C(O)C(F)(F)F.O=C(O)C(F)(F)F.c1cncc(CN2CCCn3nnc(CN4CCCC4)c3C2)c1" ?
**Result** -36.4

**Query** # lookup: Percent Effect of "CCC1(CC)Cc2ccccc2-c2nc(NCCO)[nH]c(=O)c21"
**Result** -12.78

**Query** Would you mind telling me what Percent Effect value was observed for "CNC(=O)CN1CCCC12CCN(C(=O)c1ccsc1)CC2.O=C(O)C(F)(F)F" ?
**Result** -20.96

**Query** Consider the compound shown here: "COc1cc2cc(C)c(SCCN3CCCCC3)nc2cc1OC.Cl" What is its recorded Percent Effect?
**Result** 8.064

**Query** # input compound: CC(C)Cc1ccc(C(=O)Cn2cnnc2[S+](C)[O-])cc1 (configuration not stated) ; wanted: its Percent Effect
**Result** 59.76

**Query** // lookup Percent Effect for "CC(C)Cc1ncc2c(n1)CN(c1nccc(N(C)C)n1)C2"
**Result** 7.671

**Query** For "Cl.Cl.O=C([C@@H]1CSCN1)N1CC2(CCNCC2)c2cc(Cl)ccc21" , what is its reported Percent Effect?
**Result** 3.414

**Query** For the compound shown here, "CCc1cnc(N2Cc3cnc(C(C)(C)C)nc3C2)nc1" , give the reported Percent Effect.
**Result** 15.36

**Query** Entry under review: "CC(C)Nc1ccnc(N2Cc3cnc(C(C)(C)C)nc3C2)n1" . Reported Percent Effect?
**Result** 52.72

**Query** Given the entry "N#Cc1ccc(N2CCC3(CCC(=O)N3Cc3cccnc3)CC2)nc1.O=C(O)C(F)(F)F.O=C(O)C(F)(F)F" , report its measured Percent Effect.
**Result** 16.15

**Query** Fill in: Percent Effect of "CC(C)Cc1ncc2c(n1)CN(c1nccc(NC(C)C)n1)C2" is ___
**Result** 83.11

**Query** For CNC(C(=O)OC)c1cc(F)ccc1F.Cl (configuration not stated) , what is its reported Percent Effect?
**Result** 1.092

**Query** Could you share which Percent Effect value was measured for "O=C(O)C(F)(F)F.O=C(O)C(F)(F)F.O=C1COC2(CCN(Cc3ccncc3)CC2)CN1" ?
**Result** -17.34

**Query** I'd like to know its Percent Effect. The compound in question is "CC(C)CN1CCN(C(=O)CCn2cccn2)CC1"
**Result** 37.09

**Query** Which measured Percent Effect value corresponds to "O=C(O)C(F)(F)F.O=C1Nc2ccccc2C12CCN(c1nccs1)CC2" ?
**Result** -0.7259

**Query** Quick one: Percent Effect of C[S+]([O-])c1nncn1CC(=O)c1ccc(Br)cc1 (configuration not stated) ?
**Result** 11.9

**Query** Look up Percent Effect for this compound: "c1ccc(CO[C@H]2C[C@@H]3CN(Cc4cccnc4)C[C@@H]3C2)cc1"
**Result** -10.82

**Query** I'd like to know its Percent Effect. The compound in question is "CCC(=O)N1CCN(C(=O)Cn2cccn2)CC1"
**Result** 62.88

**Query** Name the recorded Percent Effect for "Cc1nc(C2CCN(Cc3ncc[nH]3)CC2)no1.O=CO" .
**Result** -19.83

**Query** Reported Percent Effect, compound "NC(=O)N1CCC2(CCN(C(=O)c3cccnc3)CC2)C1.O=C(O)C(F)(F)F" : ____
**Result** -5.676
